# Tested on: hypoxia-inducible endogenous VEGF expression in HeLa cells
# experiment.notes: Hypoxia-inducible endogenous VEGF expression, VEGF ELISA of conditioned media (dose-response EC50)
# Format: cell-based
# measurement.conditions: Homo sapiens, HeLa cells, hypoxic conditions (1% O2)
outcome.measure: EC50

molecule | test.target | result
COc1ccc(OC(=O)N2CCc3c([nH]c4ccc(Cl)cc34)C2c2ccc(OCCCN(C)C)cc2)cc1 (stereo not drawn) | hypoxia-inducible endogenous VEGF expression in HeLa cells | 40 to 200 nM
O=C(Oc1ccc(F)cc1)N1CCc2c([nH]c3ccc(Cl)cc23)C1c1ccc(OCCCCCCNCCCn2ccnc2)cc1 (stereo not drawn) | hypoxia-inducible endogenous VEGF expression in HeLa cells | 40 to 200 nM
O=C(Oc1ccc(F)cc1)N1CCc2c([nH]c3ccc(Cl)cc23)C1c1ccc(OCCCCCCNCCO)cc1 (stereo not drawn) | hypoxia-inducible endogenous VEGF expression in HeLa cells | < 8 nM
